Assay: NCI Yeast Anticancer Drug Screen. Data for the rad50 strain (AID 155)
Details: S. cerevisiae rad50 strain growth inhibition, hits give high values; at 50.0 µM unless noted
Description: Growth inhibition of yeast strains with defined genetic alterations is measured as a screen for potential anti-cancer activity. Selected strains with alterations in DNA damage repair or cell cycle control were exposed to compounds and growth inhibition was measured relative to vehicle treated controls. The strain used in this assay is rad50
Compounds without any hit were thinned out: in the full panel of roughly 79,000, 15% have a hit.
Tick Y if growth inhibition is 20% or greater. Tick N if growth inhibition is less than 20%.

COMPOUND: C(#Cc1ccccc1)COc1ccccc1
LABEL_CLASS: N
//
COMPOUND: CC(=O)Nc1cc(C)cc(CO)c1C
LABEL_CLASS: N
//
COMPOUND: CC(=O)OC1CCC2(C)C(CCC3C2C(=O)C(OC(C)=O)C2(C)C3CC3OC4(CCC(C)CO4)C(C)C32)C1 (stereo unspecified)
LABEL_CLASS: N
//
COMPOUND: Cn1ncc2c(NC(C)(C)CC(C)(C)C)ncnc21
LABEL_CLASS: Y
//
COMPOUND: CC(=O)c1cc(Cc2cc(C)cc(C)c2O)c(O)c(Cc2cc(C)cc(C)c2O)c1
LABEL_CLASS: N
//
COMPOUND: CCc1c(C)[nH]c2ccc([N+](=O)[O-])cc12
LABEL_CLASS: N

Origin of values: PubChem BioAssay (NCI)
